Reference source for all entries: ChEMBL document CHEMBL1287788

- TESTED_SYSTEM: Phospholipase C (Bacillus cereus, UniProt P09598)
READOUT_KIND: pIC50
# pIC50: negative log10 of molar concentration; output just the value

# annotated cases, reported pIC50 shown
{"COMPOUND": "CCCCCCCCCCC(N)C(=O)N(CCC[N+](C)(C)C)OCc1ccccc1.Cl.[Cl-] (stereo unspecified)", "pIC50": 4.30}
{"COMPOUND": "CCCCCCCCCCCCCCC(N)C(=O)N(CC[N+](C)(C)C)OCc1ccccc1.Cl.[Cl-] (stereo unspecified)", "pIC50": 5.40}
{"COMPOUND": "CCCCCCCCCCC(N)C(=O)N(O)CCC[N+](C)(C)C.Cl.[Cl-] (stereo unspecified)", "pIC50": 4.24}
{"COMPOUND": "CCCCCCCCCCC(NC(=O)OC(C)(C)C)C(=O)N(CCCN(C)C)OCc1ccccc1 (stereo unspecified)", "pIC50": 5.10}
{"COMPOUND": "CCCCCCCCCCC(N)C(=O)N(CCCN(C)C)OCc1ccccc1.Cl.Cl (stereo unspecified)", "pIC50": 4.49}

Q: Need pIC50, item CCCCCCC(N)C(=O)N(O)CC[N+](C)(C)C.Cl.[Cl-] (stereo unspecified)
A: 3.30

Q: Need pIC50, item CCCCCCC(NC(=O)OC(C)(C)C)C(=O)N(CCCN(C)C)OCc1ccccc1 (stereo unspecified)
A: 4.11

Q: Need pIC50, item CCCCCCCCCCC(NC(=O)OC(C)(C)C)C(=O)N(CC[N+](C)(C)C)OCc1ccccc1.[I-] (stereo unspecified)
A: 5.30

###

- TESTED_SYSTEM: Phospholipase C (Bacillus cereus, UniProt P09598)
- Sequence (P09598 whole entry): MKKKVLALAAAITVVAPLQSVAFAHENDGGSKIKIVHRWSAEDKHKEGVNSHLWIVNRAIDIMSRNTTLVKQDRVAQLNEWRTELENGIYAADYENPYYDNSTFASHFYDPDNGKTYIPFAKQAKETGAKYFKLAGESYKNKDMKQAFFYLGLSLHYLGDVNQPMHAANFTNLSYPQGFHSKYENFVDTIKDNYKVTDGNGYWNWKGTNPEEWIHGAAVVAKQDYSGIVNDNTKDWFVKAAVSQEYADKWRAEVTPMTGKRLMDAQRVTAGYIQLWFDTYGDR
READOUT_KIND: IC50 (µM)
Give the quantity in µM, number only.

{"MOLECULE": "CCCCCCC(NC(=O)OC(C)(C)C)C(=O)N(CC[N+](C)(C)C)OCc1ccccc1.[I-] (stereo not drawn)", "TESTED_SYSTEM": "Phospholipase C (Bacillus cereus, UniProt P09598)", "NUMERIC_VALUE": 56}
{"MOLECULE": "CCCCCCCCCCC(N)C(=O)N(CC[N+](C)(C)C)OCc1ccccc1.Cl.[Cl-] (stereo not drawn)", "TESTED_SYSTEM": "Phospholipase C (Bacillus cereus, UniProt P09598)", "NUMERIC_VALUE": 10}
{"MOLECULE": "CCCCCCCCCCCCCCCCCCC(N)C(=O)N(O)CC[N+](C)(C)C.Cl.[Cl-] (stereo not drawn)", "TESTED_SYSTEM": "Phospholipase C (Bacillus cereus, UniProt P09598)", "NUMERIC_VALUE": 4}
{"MOLECULE": "CCCCCCCCCCC(N)C(=O)N(O)CC[N+](C)(C)C.Cl.[Cl-] (stereo not drawn)", "TESTED_SYSTEM": "Phospholipase C (Bacillus cereus, UniProt P09598)", "NUMERIC_VALUE": 40}
{"MOLECULE": "CCCCCCCCCCCCCCCCCCC(N)C(=O)N(CC[N+](C)(C)C)OCc1ccccc1.Cl.[Cl-] (stereo not drawn)", "TESTED_SYSTEM": "Phospholipase C (Bacillus cereus, UniProt P09598)", "NUMERIC_VALUE": 4}
{"MOLECULE": "CCCCCCC(N)C(=O)N(CCC[N+](C)(C)C)OCc1ccccc1.Cl.[Cl-] (stereo not drawn)", "TESTED_SYSTEM": "Phospholipase C (Bacillus cereus, UniProt P09598)", "NUMERIC_VALUE": 100}
{"MOLECULE": "CCCCCCCCCCCCCCC(N)C(=O)N(O)CC[N+](C)(C)C.Cl.[Cl-] (stereo not drawn)", "TESTED_SYSTEM": "Phospholipase C (Bacillus cereus, UniProt P09598)", "NUMERIC_VALUE": 2}
{"MOLECULE": "CCCCCCC(NC(=O)OC(C)(C)C)C(=O)N(CCC[N+](C)(C)C)OCc1ccccc1.[I-] (stereo not drawn)", "TESTED_SYSTEM": "Phospholipase C (Bacillus cereus, UniProt P09598)", "NUMERIC_VALUE": 78}

Turning now to a further record.
Q: Need IC50, item CCCCCCCCCCC(N)C(=O)N(O)CCCN(C)C.Cl.Cl (stereo not drawn)
A: 100
